- settings: in ethyl acetate, 313.15 K

| smi | solubility (mole fraction) |
| --- | --- |
| CC(C)[C@H](N)C(=O)O | 0.0001 |

###

- settings: in isopropanol, 293.15 K

| smi | solubility (mole fraction) |
| --- | --- |
| CC(C)[C@H](N)C(=O)O | 2.5e-05 |

###

- settings: in acetone, 303.15 K
measure: solubility (mole fraction)

| smi | data-value |
| --- | --- |
| CC(C)[C@H](N)C(=O)O | 0.0001 |

###

- settings: in acetone, 323.15 K
measure: solubility (mole fraction)

| smi | data-value |
| --- | --- |
| CC(C)[C@H](N)C(=O)O | 0.000256 |
